System: ducksalad (Heteranthera limosa)
Assay: Test C flooded paddy test plant response
Assay type: in vivo
Settings: Flood, 250 g ai/ha; scale of 0 to 100 where 0 is no effect and 100 is complete control; 13 to 15 days
Entries annotated with measured Ducksalad plant response rating
REPORTED_METRIC: Ducksalad plant response rating

molecule_smiles=Clc1cnc(Oc2ccccc2-c2cocn2)nc1 reported_metric="Ducksalad plant response rating" numeric_result=0
molecule_smiles=N#Cc1cc(-c2ccccc2Oc2ncc(Cl)cn2)no1 reported_metric="Ducksalad plant response rating" numeric_result=60
molecule_smiles=Clc1cnc(Oc2ccccc2-c2cc(Cl)ncn2)nc1 reported_metric="Ducksalad plant response rating" numeric_result=0
molecule_smiles=FC(F)(F)c1cccc(-c2ccccc2Oc2ncc(Cl)cn2)n1 reported_metric="Ducksalad plant response rating" numeric_result=0
molecule_smiles=Cn1nncc1-c1ccccc1Oc1ncc(Cl)cn1 reported_metric="Ducksalad plant response rating" numeric_result=0

====

Below: a set of entries, each annotated with reported Plant response rating (scale 0 to 100), Lambsquarters.
Tested on: lambsquarters (Chenopodium album)
Assay: Test D pre-/postemergence plant response
Format: in vivo
Details: Postemergence, 16 g ai/ha
REPORTED_METRIC: Plant response rating (scale 0 to 100), Lambsquarters

compound="Cc1cc(-c2c(F)cccc2Oc2ncc(Br)cn2)on1 [Compound 230]" numeric_result=55
compound="Fc1cccc(Oc2ncc(Cl)cn2)c1-c1cc(C(F)(F)F)no1 [Compound 228]" numeric_result=85
compound="FCc1cc(-c2ccccc2Oc2ncc(Cl)cn2)on1 [Compound 224]" numeric_result=55
compound="Fc1ccc(Oc2ncc(Cl)cn2)c(-c2cc(C(F)(Cl)Cl)on2)c1 [Compound 221]" numeric_result=85

====

Below, each entry is listed alongside its reported Ryegrass, Italian plant response rating.
System: Italian ryegrass (Lolium multiflorum)
Assay: Test B pre-/postemergence plant response
Format: in vivo
Conditions: Preemergence, 125 g ai/ha; 0 to 100 scale (0 no effect, 100 complete control)
REPORTED_METRIC: Ryegrass, Italian plant response rating

compound="FC(F)(Br)c1cc(-c2ccccc2Oc2ncc(Cl)cn2)no1 [Compound 162]" numeric_result=40
compound="FC(F)(F)c1csc(-c2ccccc2Oc2ncc(I)cn2)n1 [Compound 138]" numeric_result=0
compound="FC(F)c1cc(-c2ccccc2Oc2ncc(Br)cn2)on1 [Compound 212]" numeric_result=40
compound="N#Cc1cccc(Oc2ncc(Cl)cn2)c1-c1cc(C(F)(F)F)on1 [Compound 157]" numeric_result=20
compound="Clc1cnc(Oc2ccccc2-c2ccns2)nc1 [Compound 233]" numeric_result=0

====

System: pigweed (Amaranthus retroflexus)
Assay: Test B pre-/postemergence plant response
Type: in vivo
Settings: Postemergence, 31 g ai/ha; 0 to 100 scale (0 no effect, 100 complete control)
Excerpt: […]
REPORTED_METRIC: Plant response rating, Pigweed

molecule_smiles=Cc1cnc(Oc2ccccc2-c2cc(C(F)F)no2)nc1 subject_of_test="pigweed (Amaranthus retroflexus)" numeric_result=20
molecule_smiles=Clc1cnc(Oc2ccccc2-c2cnccn2)nc1 subject_of_test="pigweed (Amaranthus retroflexus)" numeric_result=20
molecule_smiles=Clc1cnc(Oc2ccccc2-c2ccsc2)nc1 subject_of_test="pigweed (Amaranthus retroflexus)" numeric_result=20
molecule_smiles=CCOC(=O)c1cc(-c2ccccc2Oc2ncc(Cl)cn2)on1 subject_of_test="pigweed (Amaranthus retroflexus)" numeric_result=0
molecule_smiles=CC(=O)c1cc(-c2ccccc2Oc2ncc(Br)cn2)no1 subject_of_test="pigweed (Amaranthus retroflexus)" numeric_result=10
molecule_smiles=N#Cc1cc(-c2c(F)cccc2Oc2ncc(Cl)cn2)no1 subject_of_test="pigweed (Amaranthus retroflexus)" numeric_result=30
molecule_smiles=CC(=O)c1cc(-c2ccccc2Oc2ncc(Cl)cn2)on1 subject_of_test="pigweed (Amaranthus retroflexus)" numeric_result=0
molecule_smiles=CC(F)(F)c1cc(-c2ccccc2Oc2ncc(Cl)cn2)no1 subject_of_test="pigweed (Amaranthus retroflexus)" numeric_result=100
molecule_smiles=Cn1nc(-c2c(C#N)cccc2Oc2ncc(Cl)cn2)cc1C(F)(F)F subject_of_test="pigweed (Amaranthus retroflexus)" numeric_result=30
